Consider the following molecules; for each one, report its RP-LC retention time.
assay: gradient 5% acetonitrile 3 min, to 50% in 2 min, to 85% in 15 min, held 3 min, 100 µL/min; details: column: Zorbax Extend-C18 2.1 x 50 mm; eluents: water / acetonitrile, 0.1% formic acid
Answers are plain numbers, in s.

Would you please look over these solved cases?
>>> result_number("CCOCc1nc(C2CCCN2C(=O)Nc2ccsc2C(=O)OC)no1 (stereo not given)")
626
>>> result_number("COc1ccc(Br)cc1CNC(=O)C1CCN(C(=O)c2cc3ccsc3[nH]2)CC1")
839

Batch of 2 molecules: report RP-LC retention time for each.
1. COc1nn(C)cc1C(=O)N1CCC(C(=O)Nc2ccc(-n3cnnn3)cc2)CC1
2. Cc1cc(-c2nnc(C3CCC3)o2)c(C)n1CC(=O)NCc1cccc(C(F)(F)F)c1

[reply]
[600, 937]

[ask] Check the records and state RP-LC retention time for Cn1ncc2c3ccccc3n(CC(=O)NCCCN3CCCC3)c2c1=O
[reply] 592

----------
assay: gradient 5% acetonitrile 3 min, to 50% in 2 min, to 85% in 15 min, held 3 min, 100 µL/min; conditions: column: Zorbax Extend-C18 2.1 x 50 mm; eluents: water / acetonitrile, 0.1% formic acid
REPORTED_METRIC: RP-LC retention time (s)
Answers are plain numbers, in s.

>>> result_number("CCCCS(=O)(=O)c1cc2c(cc1NC(=O)c1ccccc1C)n(C)c(=O)n2C")
853
>>> result_number("CCN1C(=O)c2cccnc2Sc2cc(CNC(=O)c3ccc(OC)c(F)c3)ccc21")
763

Batch of 3 compounds: report RP-LC retention time for each.
1. COc1ccc(C(=O)Nc2cccn3c(C)nnc23)cc1F
2. COc1ccc(S(=O)(=O)NCCS(=O)(=O)N2CCN(c3ccccc3)CC2)cc1
3. CCOc1ccc(Nc2nc(-c3nnn(-c4ccc(OCC)cc4)c3C)ns2)cc1

[reply]
1: 667; 2: 849; 3: 1130

Batch of 2 compounds: report RP-LC retention time for each.
1. Cn1cc(CCN2CCC(C(=O)NCc3ccc4c(c3)OCO4)CC2)c2cccnc21
2. COc1cccc(NC(=O)N(Cc2nnc3n2CCCCC3)c2cccc(OC)c2)c1

[reply]
1: 584; 2: 718

Batch of 5 compounds: report RP-LC retention time for each.
1. Cn1cc(S(=O)(=O)N2CCC(C(=O)NC3CC3)CC2)cc1C(=O)N1CCCC1
2. COC(=O)c1ccc(S(=O)(=O)N2CCN(S(=O)(=O)C3CC3)CC2)cc1
3. CCOc1ccc2nc(NC(=O)Cc3csc4nc(-c5ccc(C)c(C)c5)cn34)sc2c1
4. COCCN1C(=O)[C@H]2CN(Cc3ccc(F)c(Br)c3)C[C@H]2C1=O
5. Cc1ccc(CN2C[C@@H]3C(=O)N(CCc4ccccc4)C(=O)[C@@H]3C2)cc1

[reply]
1: 641; 2: 878; 3: 980; 4: 680; 5: 760

----------
assay: gradient 5% acetonitrile 3 min, to 50% in 2 min, to 85% in 15 min, held 3 min, 100 µL/min; conditions: column: Zorbax Extend-C18 2.1 x 50 mm; eluents: water / acetonitrile, 0.1% formic acid
REPORTED_METRIC: RP-LC retention time

>>> result("CC1CCN(c2cc(-n3cnc(C(=O)Nc4ccc(N(C)C)cc4)c3)ncn2)CC1")
"751 s"

Batch of 8 molecules: report RP-LC retention time for each.
1. Cc1c(Cn2c(C)nc3c(C(=O)O)cc(N4CCOCC4)cc32)cccc1C(F)(F)F
2. COc1cc(CCNC(=O)c2c(N3CCCC3=O)c3cc(F)ccc3n2C)cc(OC)c1OC
3. CC(C)(C)c1ccc(C(=O)N2CCN=C2N2CCCC2)cc1
4. COc1ccc(-n2cc(-c3nc(-c4ccccn4)no3)c3ccccc3c2=O)cc1OC
5. COc1ccc(-c2noc(C3(NC(=O)c4cc(C)cc(C)c4)CCCCC3)n2)cc1
6. CCN(Cc1ccccc1)Cc1nc(-c2ccc(N3CCOCC3)nc2)no1
7. CNC(=O)C1CCCN(c2nc3ncn(CC(=O)Nc4cc(OC)ccc4OC)c(=O)c3s2)C1 (centres undefined)
8. Cc1ccc(-c2noc(Cn3cnc4c(cnn4-c4ccc(C)c(Cl)c4)c3=O)n2)cc1

[reply]
741 s
762 s
738 s
821 s
1250 s
772 s
705 s
1270 s

----------
assay: gradient 5% acetonitrile 3 min, to 50% in 2 min, to 85% in 15 min, held 3 min, 100 µL/min; details: column: Zorbax Extend-C18 2.1 x 50 mm; eluents: water / acetonitrile, 0.1% formic acid
Consider the following compounds; for each one, report its RP-LC retention time.
Numbers only, in s.

>>> result_number("CN(C)C(=O)c1ccc(-n2nc(C(F)(F)F)c3c2CCCC3)cc1")
882

Batch of 5 compounds: report RP-LC retention time for each.
1. COc1ccc(-c2noc(Cn3ccn(-c4c(C)cccc4C)c(=O)c3=O)n2)cc1OC
2. CCOC(=O)C1=C(CN2CCN(c3ccccn3)CC2)NC(=O)NC1c1cccc(OC)c1OC (centres undefined)
3. Cn1cc(-c2ccc(F)cc2)cc1C(=O)NC1CC1
4. CN(C)S(=O)(=O)c1ccc(C(=O)N2CC(=O)Nc3ccc(Cl)cc3C2c2ccccc2)cc1 (centres undefined)
5. Cc1[nH]c(C)c(S(=O)(=O)N2CCC(C(=O)NC3CCC(C)CC3)CC2)c1C(=O)N1CCCCC1 (centres undefined)

[reply]
[797, 615, 847, 873, 778]

Batch of 3 compounds: report RP-LC retention time for each.
1. CCOCC(=O)N1CCC(Oc2nccnc2N2CCOCC2)C1 (centres undefined)
2. O=S(=O)(Nc1ccc(Cl)cn1)c1cc(-c2noc(C3CCCC3)n2)cs1
3. Cc1ccc(CN2CCn3c(nn(CC4CC4)c3=O)C2)nc1

[reply]
[640, 1070, 561]

----------
assay: gradient 5% acetonitrile 3 min, to 50% in 2 min, to 85% in 15 min, held 3 min, 100 µL/min; details: column: Zorbax Extend-C18 2.1 x 50 mm; eluents: water / acetonitrile, 0.1% formic acid
In plain terms, low RP-LC retention time, meaning strictly below 900 s, gives criterion met, and everything else gives criterion not met.

Use the examples below as a reference point.
>>> qualitative_label("CCc1nc2cc(-c3noc(/C=C/c4ccco4)n3)ccc2o1")
"criterion not met"
>>> qualitative_label("O=C(NCc1ccc2c(c1)OCO2)C1CCCN(c2ccc(=O)n(-c3cccc(Cl)c3)n2)C1 (centres undefined)")
"criterion met"
>>> qualitative_label("Cc1ccc(N2CCC(NC(=O)Nc3cccc(C)c3)C2=O)cc1 (centres undefined)")
"criterion met"
>>> qualitative_label("Cc1ccc(N2CCCS2(=O)=O)cc1NS(=O)(=O)c1c(C)noc1C")
"criterion met"
>>> qualitative_label("CCc1ccc(-n2nc(C)c3c(C(F)(F)F)cc(OCC(=O)NCc4ccco4)nc32)cc1")
"criterion not met"
>>> qualitative_label("Cc1cccc(CN2CCCn3nc(C(=O)NCCCN4CCOCC4)cc3C2=O)c1")
"criterion met"
>>> qualitative_label("CC(NC(=O)c1c(O)c2cccnc2n(-c2cccc(F)c2)c1=O)c1ccc(F)cc1 (centres undefined)")
"criterion not met"
>>> qualitative_label("O=C(CCc1nnc2c3cc(-c4ccccc4)nn3ccn12)N1CCN(C(=O)c2ccco2)CC1")
"criterion met"

Consider the additional compound presented here.
[ask] Strictly below 900 s: is that where RP-LC retention time of Cc1ccc(CNC(=O)Cc2nnc(-c3cnccn3)o2)cc1C sits?
[reply] criterion met

----------
assay: gradient 5% acetonitrile 3 min, to 50% in 2 min, to 85% in 15 min, held 3 min, 100 µL/min; conditions: column: Zorbax Extend-C18 2.1 x 50 mm; eluents: water / acetonitrile, 0.1% formic acid
In plain terms, low RP-LC retention time, meaning strictly below 700 s, gives Yes, and everything else gives No.

[ask] Strictly below 700 s: is that where RP-LC retention time of COc1ccc(C(=O)N2CCCC2c2nc(-c3ccc(OC)c(OC)c3)no2)cc1F (stereo not drawn) sits?
[reply] No

[ask] Strictly below 700 s: is that where RP-LC retention time of O=C(NCC1CCN(Cc2ccco2)CC1)C(=O)Nc1ccc(F)c(Cl)c1 sits?
[reply] Yes

----------
assay: gradient 5% acetonitrile 3 min, to 50% in 2 min, to 85% in 15 min, held 3 min, 100 µL/min; details: column: Zorbax Extend-C18 2.1 x 50 mm; eluents: water / acetonitrile, 0.1% formic acid
REPORTED_METRIC: RP-LC retention time (s)
Give bare numbers, in s.

Would you please look over these solved cases?
>>> result_number("Cc1ccc(N2C(=O)CN(S(C)(=O)=O)CC2(C)C(=O)NCc2ccc(Cl)cc2)c(C)c1 (stereo not given)")
903
>>> result_number("Cc1nc(-c2ccccc2Cl)sc1C(=O)N[C@@H](Cc1c[nH]c2ccccc12)C(=O)O")
898
>>> result_number("O=C(CC(c1ccccc1)c1ccccc1)N1CC(c2nc(-c3ccccc3)no2)C1")
1020
>>> result_number("COc1cccc(OC)c1C(=O)Nc1nc(-c2ccc3c(c2)NC(=O)CO3)c(C)s1")
785
>>> result_number("COC(=O)c1cnc2nc(C)ccc2c1Nc1ccc(C)c(F)c1")
696

Batch of 2 compounds: report RP-LC retention time for each.
1. O=C(C(=O)N1CCOCC1)c1c(-c2ccccc2)cc2ccccn12
2. O=C(NCc1ccc(F)cc1)C1CCc2nc(N3CCCCC3)ncc2C1 (stereo not given)

[reply]
[798, 678]

Batch of 4 compounds: report RP-LC retention time for each.
1. COc1ccc(Nc2nc(N(C)C)nc3nccnc23)cc1
2. CC1CCN(C(=O)CN2C(=O)CCCc3cc(S(=O)(=O)N4CCCCCC4)ccc32)CC1
3. Cc1cc(C)cc(NC(=O)Cn2c(=O)nc(N3CCCC(C)C3)c3ccccc32)c1 (stereo not given)
4. CCCc1nc(-c2c(C)cc(C)nc2NC(=O)c2cccc(Br)c2)no1

[reply]
1. 563
2. 956
3. 913
4. 1010

Batch of 6 compounds: report RP-LC retention time for each.
1. c1ccc2c(-c3nnc(C4CC4)o3)nnc(NC3CCCCC3)c2c1
2. Cc1ccccc1OCC(=O)N1CCCC(COCc2ccccc2)C1 (stereo not given)
3. CN1c2ccc(F)cc2C(=O)NC12CCN(C(=O)Cc1ccc(Cl)cc1)CC2
4. CCOC(=O)c1nc(Nc2cc(OC)ccc2OC)c2ccccc2n1
5. O=C(c1ccsc1)N1CCCC1(CO)Cc1ccccc1 (stereo not given)
6. Cc1noc(-c2cccc(OC3CN(C(=O)NC4CCCC4)C3)c2)n1

[reply]
[793, 1030, 795, 911, 819, 850]

Batch of 3 compounds: report RP-LC retention time for each.
1. CC(C)CNC(=O)CCC1CCN(c2cc(NC3CC3)ncn2)CC1
2. Cc1ccc(NC(=O)N2CCC(OC3CCN(S(C)(=O)=O)CC3)CC2)cc1C
3. Cc1cccc(C)c1Nc1c(-c2ccc(O)cc2)nc2ncccn12

[reply]
1. 615
2. 803
3. 658

Data provenance is the METLIN SMRT retention time set (Domingo-Almenara et al. 2019).
